target-entity: Trx-His6-MBD4 MBD Y109F (SPR) (Homo sapiens, UniProt O95243 80-148, Y109F)
Sequence (O95243 80-148 Y109F): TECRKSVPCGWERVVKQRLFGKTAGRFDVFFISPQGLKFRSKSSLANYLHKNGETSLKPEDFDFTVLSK
test-summary: SPR; SPR running buffer: 10 mM HEPES pH 7.4, 50 mM NaCl, 3 mM MgCl2, 0.1 mM EDTA, 1 mM DTT, 0.1% BSA, 0.005% polysorbate 20 (samples prepared at pH 6.5); temperature not given; NMR buffer not given (low salt, up to 100 mM NaCl in titration)
condition-summary: protein: recombinant; tags: N-terminal thioredoxin and His6 fusion, retained for SPR; label: 3' biotin on strand 1 (SPR only); blunt
readout-type: Kd (µM)
Numbers only, in µM.

Sample records with Kd:
• hmCpG (17 bp) (dsDNA, 5-hydroxymethyl-C at strand 1 position 9 and strand 2 position 8) DNA 1: GAGGCGCTCGGCGGCAG DNA 2: CTGCCGCCGAGCGCCTC = 16
• mCpG (17 bp) (dsDNA, 5-methyl-C at strand 1 position 9 and strand 2 position 8) DNA 1: GAGGCGCTCGGCGGCAG DNA 2: CTGCCGCCGAGCGCCTC = 7.9

Next binder, Kd to be filled in.
// query Give the reported Kd for this binder. CpG (17 bp) (dsDNA) DNA 1: GAGGCGCTCGGCGGCAG DNA 2: CTGCCGCCGAGCGCCTC
// result 19.6
